# procedureDetails: Human microsome stability assay
# Format: in vitro ADME
# testSettings: human liver microsomes, 1 μM test compound, 0.5 mg/mL microsomal protein, 37° C., pH 7.4, 0-30 minutes

[
  {
    "molecule": "COc1cc(OC2CC(C(=O)O)C2)c(-c2cc(=O)c3c(O)ccc(Cl)c3o2)cc1OC (stereo not shown) [Example B042]",
    "Clearance of Human microsome, mL/min/kg": 6.15
  },
  {
    "molecule": "CCCOc1cc(OCCO[C@H]2C[C@@H](C(=O)O)C2)c(-c2cc(=O)c3cccc(Cl)c3o2)cc1OC [Example C077]",
    "Clearance of Human microsome, mL/min/kg": 6.15
  },
  {
    "molecule": "COc1cc(Cl)c2oc(-c3ccc(C(F)(F)F)cc3OCCC(=O)O)cc(=O)c2c1 [Example A033]",
    "Clearance of Human microsome, mL/min/kg": 6.15
  },
  {
    "molecule": "O=c1cc(-c2ccc(Br)cc2OCCCO[C@H]2C[C@@H](C(=O)O)C2)oc2c(Cl)cccc12 [Example C056-A]",
    "Clearance of Human microsome, mL/min/kg": 6.15
  }
]

====

# procedureDetails: Human microsome stability assay
# Assay type: in vitro ADME
# testSettings: human liver microsomes, 1 μM test compound, 0.5 mg/mL microsomal protein, 37° C., pH 7.4, 0-30 minutes
# Method: The human microsomal stability assay is used for early assessment of metabolic stability of a test compound in human liver microsomes. Human liver microsomes (Cat. NO.: 452117, Corning, USA; Cat. NO.: H2610, Xenotech, USA) were preincubated with test compound for 10 minutes at 37° C. in 100 mM potassium phosphate buffer, pH 7.4. […] Following precipitation and centrifugation, the amount of compound remaining in the samples was determined by LC-MS/MS. […]
Clearance of Human microsome by entry:
measuredAttribute: Clearance of Human microsome (mL/min/kg)

[
  {
    "molecule": "Cc1ccc(-c2cc(=O)c3cccc(Cl)c3o2)c(OCC(=O)N2CCC[C@@H]2C(=O)NS(C)(=O)=O)c1",
    "measuredAttribute": "Clearance of Human microsome",
    "measureUnit": "mL/min/kg",
    "observed": 6.15
  },
  {
    "molecule": "COc1cc(-c2cc(=O)c3cccc(Cl)c3o2)c(OCCO[C@H]2C[C@@H](C(=O)O)C2)cc1OC(F)F",
    "measuredAttribute": "Clearance of Human microsome",
    "measureUnit": "mL/min/kg",
    "observed": 6.15
  },
  {
    "molecule": "O=C(COc1cc(C(F)(F)F)ccc1-c1cc(=O)c2cccc(Cl)c2o1)NCCO",
    "measuredAttribute": "Clearance of Human microsome",
    "measureUnit": "mL/min/kg",
    "observed": 9.68
  },
  {
    "molecule": "O=c1cc(-c2cc(Br)c(F)cc2OCCO[C@H]2C[C@@H](C(=O)O)C2)oc2c(Cl)cccc12",
    "measuredAttribute": "Clearance of Human microsome",
    "measureUnit": "mL/min/kg",
    "observed": 9.6
  },
  {
    "molecule": "CC(CC(=O)O)OC(=O)CC(C)Oc1cc(C(F)(F)F)ccc1-c1cc(=O)c2cccc(Cl)c2o1 (stereo not shown)",
    "measuredAttribute": "Clearance of Human microsome",
    "measureUnit": "mL/min/kg",
    "observed": 6.15
  },
  {
    "molecule": "O=c1cc(-c2ccccc2OCCO[C@H]2C[C@@H](C(=O)O)C2)oc2c(Cl)cc(F)cc12",
    "measuredAttribute": "Clearance of Human microsome",
    "measureUnit": "mL/min/kg",
    "observed": 6.15
  },
  {
    "molecule": "O=c1cc(-c2ccccc2OCCO[C@H]2C[C@H](C(=O)O)C2)oc2c(Br)cccc12",
    "measuredAttribute": "Clearance of Human microsome",
    "measureUnit": "mL/min/kg",
    "observed": 6.15
  },
  {
    "molecule": "Cc1ccc(-c2cc(=O)c3cccc(Br)c3o2)c(OCCCOCC(=O)O)c1",
    "measuredAttribute": "Clearance of Human microsome",
    "measureUnit": "mL/min/kg",
    "observed": 6.15
  },
  {
    "molecule": "O=c1cc(-c2cc3c(cc2O[C@H]2C[C@H](C(=O)O)C2)CCO3)oc2c(Cl)cccc12",
    "measuredAttribute": "Clearance of Human microsome",
    "measureUnit": "mL/min/kg",
    "observed": 6.15
  },
  {
    "molecule": "O=C(O)[C@@H]1C[C@@H](Oc2cc(C(F)(F)F)ccc2-c2cc(=O)c3cccc(Cl)c3o2)CN1S(=O)(=O)c1ccccc1",
    "measuredAttribute": "Clearance of Human microsome",
    "measureUnit": "mL/min/kg",
    "observed": 6.15
  },
  {
    "molecule": "COc1cc(OCCOCC(=O)O)c(-c2cc(=O)c3cccc(Cl)c3o2)cc1OC",
    "measuredAttribute": "Clearance of Human microsome",
    "measureUnit": "mL/min/kg",
    "observed": 6.15
  },
  {
    "molecule": "O=C(O)CCCOc1cc(C(F)(F)F)ccc1-c1cc(=O)c2c(O)ccc(Cl)c2o1",
    "measuredAttribute": "Clearance of Human microsome",
    "measureUnit": "mL/min/kg",
    "observed": 6.15
  },
  {
    "molecule": "CS(=O)(=O)NC(=O)[C@H]1C[C@@H](Oc2cc(OC(F)(F)F)ccc2-c2cc(=O)c3cccc(Cl)c3o2)C1",
    "measuredAttribute": "Clearance of Human microsome",
    "measureUnit": "mL/min/kg",
    "observed": 6.15
  },
  {
    "molecule": "Cc1ccc(-c2cc(=O)c3cccc(Cl)c3o2)c(OCCCC(=O)O)c1",
    "measuredAttribute": "Clearance of Human microsome",
    "measureUnit": "mL/min/kg",
    "observed": 8.34
  },
  {
    "molecule": "O=C(O)COCCCOc1cc(C(F)(F)F)ccc1-c1cc(=O)c2c(O)ccc(Cl)c2o1",
    "measuredAttribute": "Clearance of Human microsome",
    "measureUnit": "mL/min/kg",
    "observed": 6.15
  },
  {
    "molecule": "Cc1ccc(O[C@H]2C[C@@H](C(=O)O)C2)c(-c2cc(=O)c3cccc(Cl)c3o2)c1",
    "measuredAttribute": "Clearance of Human microsome",
    "measureUnit": "mL/min/kg",
    "observed": 6.15
  }
]

====

# procedureDetails: Human microsome stability assay
# Type: in vitro ADME
# testSettings: human liver microsomes, 1 μM test compound, 0.5 mg/mL microsomal protein, 37° C., pH 7.4, 0-30 minutes
Clearance of Human microsome by entry:
measuredAttribute: Clearance of Human microsome (mL/min/kg)

[
  {
    "compound": "O=c1cc(-c2ncc(Br)cc2OCCO[C@H]2C[C@H](C(=O)O)C2)oc2c(Cl)cccc12 [Example C027]",
    "measuredAttribute": "Clearance of Human microsome",
    "observed": 6.15
  },
  {
    "compound": "CCOc1ccc(OCCO[C@H]2C[C@@H](C(=O)O)C2)c(-c2cc(=O)c3cccc(Cl)c3o2)c1 [Example C051-A]",
    "measuredAttribute": "Clearance of Human microsome",
    "observed": 6.15
  },
  {
    "compound": "O=C(O)COCC(O)COc1cc(Br)ccc1-c1cc(=O)c2cccc(Cl)c2o1 (centres unmarked) [Example C113]",
    "measuredAttribute": "Clearance of Human microsome",
    "observed": 6.15
  },
  {
    "compound": "CC(CC(=O)O)Oc1cc(C(F)(F)F)ccc1-c1cc(=O)c2cccc(Cl)c2o1 (centres unmarked) [Example A039]",
    "measuredAttribute": "Clearance of Human microsome",
    "observed": 6.37
  },
  {
    "compound": "COc1cc(OCCC(=O)O)c(-c2cc(=O)c3cccc(Cl)c3o2)cc1OC [Example A010]",
    "measuredAttribute": "Clearance of Human microsome",
    "observed": 6.15
  },
  {
    "compound": "COc1cc(-c2cc(=O)c3cccc(Cl)c3o2)c(OCCC(=O)O)cc1C [Example A015]",
    "measuredAttribute": "Clearance of Human microsome",
    "observed": 6.15
  },
  {
    "compound": "O=c1cc(-c2c(F)cc(Br)cc2OCCO[C@H]2C[C@@H](C(=O)O)C2)oc2c(Cl)cccc12 [Example C071]",
    "measuredAttribute": "Clearance of Human microsome",
    "observed": 6.15
  },
  {
    "compound": "COc1ccc(OC[C@H]2C[C@H](C(=O)O)C2)c(-c2cc(=O)c3cccc(Cl)c3o2)c1 [Example B027-B]",
    "measuredAttribute": "Clearance of Human microsome",
    "observed": 6.15
  },
  {
    "compound": "COc1cc(-c2cc(=O)c3cccc(Cl)c3o2)c(OCCC(=O)O)cc1Br [Example A007]",
    "measuredAttribute": "Clearance of Human microsome",
    "observed": 6.15
  },
  {
    "compound": "O=C(O)CCOc1cc(OC(F)(F)F)ccc1-c1cc(=O)c2cccc(Br)c2o1 [Example A022]",
    "measuredAttribute": "Clearance of Human microsome",
    "observed": 6.15
  },
  {
    "compound": "Cc1cc(-c2cc(=O)c3cccc(Cl)c3o2)c(OCC(C)(C)C(=O)O)cc1Cl [Example A064]",
    "measuredAttribute": "Clearance of Human microsome",
    "observed": 9.5
  },
  {
    "compound": "CCNS(=O)(=O)N[C@@H](COc1cc(C(F)(F)F)ccc1-c1cc(=O)c2cccc(Cl)c2o1)C(=O)O [Example A099]",
    "measuredAttribute": "Clearance of Human microsome",
    "observed": 9.53
  },
  {
    "compound": "O=C(O)C(O)COc1cc(C(F)(F)F)ccc1-c1cc(=O)c2cccc(Cl)c2o1 (centres unmarked) [Example B073]",
    "measuredAttribute": "Clearance of Human microsome",
    "observed": 6.15
  },
  {
    "compound": "O=C(O)[C@@H]1C[C@H](Oc2cc(Br)ccc2-c2cc(=O)c3cccc(Cl)c3o2)CN1S(=O)(=O)C1CC1 [Example B083]",
    "measuredAttribute": "Clearance of Human microsome",
    "observed": 6.15
  }
]

All values here come from patent US11708344B2.
